- tested-on: influenza virus A/WSN/33 NA-Q136L (Influenza A virus, UniProt P03470, Q120L)
attribute-measured: IC50 (nM)
Answers are plain numbers, in nM.

Request: Request - read-out IC50 | tested on influenza virus A/WSN/33 NA-Q136L (Influenza A virus, UniProt P03470, Q120L) | compound CC(=O)N[C@H]1[C@H]([C@H](O)[C@H](O)CO)OC(C(=O)O)=C[C@@H]1O [DANA, reference compound]
Response: 2330

====

- tested-on: influenza virus A/WSN/33 NA-Y155H (Influenza A virus, UniProt P03470, Y139H)
- Assay type: biochemical, influenza A virus A/WSN/1933 (H1N1)
For each of the molecules below, state its FC, NA-Y155H.
Answers are plain numbers.

Examples with answers:
Cc1cc(N=Nc2ccc(N=Nc3c(O)c(S(=O)(=O)O)cc4cc(S(=O)(=O)O)ccc34)cc2C)ccc1N=Nc1ccc2cc(S(=O)(=O)O)cc(S(=O)(=O)O)c2c1 [Compound 1]	1
Cc1ccccc1/N=N/c1ccc(/N=N/c2c(O)ccc3cc(S(=O)(=O)O)cc(S(=O)(=O)O)c23)c(C)c1 [Compound 5]	1
O=S(=O)(O)c1ccc2c(/N=N/c3ccc(Sc4ccc(/N=N/c5c(O)ccc6cc(S(=O)(=O)O)ccc56)cc4)cc3)c(O)ccc2c1 [Compound 2]	0.2

// switching to the query molecule
Request: Request - read-out FC, NA-Y155H | tested on influenza virus A/WSN/33 NA-Y155H (Influenza A virus, UniProt P03470, Y139H) | molecule CC(=O)N[C@H]1[C@H]([C@H](O)[C@H](O)CO)OC(C(=O)O)=C[C@@H]1O [DANA, reference compound]
Response: 3

====

- tested-on: influenza virus A/WSN/33 NA-I427Q (Influenza A virus, UniProt P03470, I411Q)
- experimental-setup: read-out: IC50, NA-I427Q
attribute-measured: IC50 (µM)
One number for each entry, in µM.

Request: Report IC50 for CC(=O)N[C@H]1[C@H]([C@H](O)[C@H](O)CO)OC(C(=O)O)=C[C@@H]1O [DANA, reference compound] please.
Response: 12.8

====

- tested-on: influenza virus A/WSN/33 NA-N294S (Influenza A virus, UniProt P03470, N279S)
- Format: biochemical, influenza A virus A/WSN/1933 (H1N1)
attribute-measured: FC, NA-N294S
Numbers only.

O=S(=O)(O)c1ccc2c(/N=N/c3ccc(Sc4ccc(/N=N/c5c(O)ccc6cc(S(=O)(=O)O)ccc56)cc4)cc3)c(O)ccc2c1	1
CC(=O)N[C@H]1[C@H]([C@H](O)[C@H](O)CO)OC(C(=O)O)=C[C@@H]1O [DANA, reference compound]	3
Cc1cc(N=Nc2ccc(N=Nc3c(O)c(S(=O)(=O)O)cc4cc(S(=O)(=O)O)ccc34)cc2C)ccc1N=Nc1ccc2cc(S(=O)(=O)O)cc(S(=O)(=O)O)c2c1	1

// switching to the query compound
Request: Report FC, NA-N294S for `Cc1ccccc1/N=N/c1ccc(/N=N/c2c(O)ccc3cc(S(=O)(=O)O)cc(S(=O)(=O)O)c23)c(C)c1` please.
Response: 3

====

- tested-on: influenza virus A/WSN/33 NA-Q136L (Influenza A virus, UniProt P03470, Q120L)
- Type: biochemical, influenza A virus A/WSN/1933 (H1N1)
attribute-measured: FC, NA-Q136L

Cc1ccccc1/N=N/c1ccc(/N=N/c2c(O)ccc3cc(S(=O)(=O)O)cc(S(=O)(=O)O)c23)c(C)c1	2
Cc1cc(N=Nc2ccc(N=Nc3c(O)c(S(=O)(=O)O)cc4cc(S(=O)(=O)O)ccc34)cc2C)ccc1N=Nc1ccc2cc(S(=O)(=O)O)cc(S(=O)(=O)O)c2c1	2
O=S(=O)(O)c1ccc2c(/N=N/c3ccc(Sc4ccc(/N=N/c5c(O)ccc6cc(S(=O)(=O)O)ccc56)cc4)cc3)c(O)ccc2c1	2

// switching to the query compound
Request: Request - read-out FC, NA-Q136L | tested on influenza virus A/WSN/33 NA-Q136L (Influenza A virus, UniProt P03470, Q120L) | compound CC(=O)N[C@H]1[C@H]([C@H](O)[C@H](O)CO)OC(C(=O)O)=C[C@@H]1O [DANA, reference compound]
Response: 1

====

- tested-on: influenza virus A/WSN/33 NA-Y155H (Influenza A virus, UniProt P03470, Y139H)
attribute-measured: pIC50
Answers are plain numbers, as −log10 of the molar value.

Request: Report pIC50 for CC(=O)N[C@H]1[C@H]([C@H](O)[C@H](O)CO)OC(C(=O)O)=C[C@@H]1O [DANA, reference compound] please.
Response: 5.08

====

- tested-on: influenza virus A/WSN/33 NA-H274Y (Influenza A virus, UniProt P03470, H259Y)
attribute-measured: pIC50
Numbers only, as −log10 of the molar value.

Request: Report pIC50 for CC(=O)N[C@H]1[C@H]([C@H](O)[C@H](O)CO)OC(C(=O)O)=C[C@@H]1O [DANA, reference compound] please.
Response: 5.60

====

- tested-on: influenza virus A/WSN/33 NA-N294S (Influenza A virus, UniProt P03470, N279S)
attribute-measured: IC50 (µM)
One number for each entry, in µM.

Request: Report IC50 for CC(=O)N[C@H]1[C@H]([C@H](O)[C@H](O)CO)OC(C(=O)O)=C[C@@H]1O [DANA, reference compound] please.
Response: 8.12

FYI, the data here is from paper PMC5309245.
